target of assay: ALDH1A1 (Homo sapiens, UniProt P00352)
Sequence (P00352 whole entry, canonical isoform): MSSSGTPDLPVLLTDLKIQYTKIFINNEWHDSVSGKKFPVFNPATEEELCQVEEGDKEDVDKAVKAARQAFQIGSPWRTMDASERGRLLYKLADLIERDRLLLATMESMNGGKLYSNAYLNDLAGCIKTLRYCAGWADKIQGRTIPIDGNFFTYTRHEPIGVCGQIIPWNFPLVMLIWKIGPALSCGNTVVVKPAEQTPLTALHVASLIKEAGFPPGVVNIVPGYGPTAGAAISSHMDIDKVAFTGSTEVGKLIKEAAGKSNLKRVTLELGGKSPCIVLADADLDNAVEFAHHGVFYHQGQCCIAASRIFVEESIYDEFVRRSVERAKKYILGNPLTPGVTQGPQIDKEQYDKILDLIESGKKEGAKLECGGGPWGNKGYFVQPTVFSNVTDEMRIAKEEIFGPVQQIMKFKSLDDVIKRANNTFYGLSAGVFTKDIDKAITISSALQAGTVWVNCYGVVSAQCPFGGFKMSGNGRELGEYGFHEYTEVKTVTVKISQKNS
test name: ALDH isoform-specific enzyme assay (NADH absorbance 340 nm)
experimental conditions: Study 1; read-out: IC50s ALDH1A1
measurement kind: IC50 (µM)

a: Cc1nc2ccccc2n1S(=O)(=O)c1ccc(F)cc1 [CB7]
b: O=C1Nc2ccccc2C1=O [Isatin]
Please indicate which item has the smaller measured IC50: a versus b Write the label of whichever entry you select.
b

* * *

target of assay: ALDH2 (Homo sapiens, UniProt P05091)
Sequence (P05091 18-517): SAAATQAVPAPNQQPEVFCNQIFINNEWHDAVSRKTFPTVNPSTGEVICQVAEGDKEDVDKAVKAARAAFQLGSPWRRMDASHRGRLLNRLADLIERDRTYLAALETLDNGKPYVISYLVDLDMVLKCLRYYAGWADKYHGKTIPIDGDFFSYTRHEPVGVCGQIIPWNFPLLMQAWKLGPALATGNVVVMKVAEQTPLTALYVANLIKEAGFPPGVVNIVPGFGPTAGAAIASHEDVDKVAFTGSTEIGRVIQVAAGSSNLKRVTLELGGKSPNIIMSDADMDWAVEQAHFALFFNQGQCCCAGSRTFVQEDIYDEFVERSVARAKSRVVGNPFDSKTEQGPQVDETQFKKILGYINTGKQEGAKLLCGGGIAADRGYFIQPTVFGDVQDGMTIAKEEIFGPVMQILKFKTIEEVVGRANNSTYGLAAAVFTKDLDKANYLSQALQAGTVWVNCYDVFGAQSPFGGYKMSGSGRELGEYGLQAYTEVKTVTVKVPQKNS
test name: ALDH isoform-specific enzyme assay (NADH absorbance 340 nm)
experimental conditions: Study 1; read-out: IC50s ALDH2
pIC50: −log10 of the molar value.
measurement kind: pIC50

1. O=C1Nc2ccccc2C1=O    3.77
2. Cc1nc2ccccc2n1S(=O)(=O)c1ccc(F)cc1    3.84
